Reference source for all entries: paper PMC7375020

- Test system: tested human cancer cell lines
- Measurement Description: In vitro antiproliferative assay (MTT), all tested tumor cell lines
- Type: cell-based
- Measurement Conditions: range over MDA-MB-231, MCF-7, PC-3, SK-N-BE(2), KG-1, MOLT-4, HEL, read-out: IC50 values across all tested human cancer cell lines
pIC50: −log10 of the molar value.
Property: pIC50

I am curious: what pIC50 value has been reported for O=C(CCCCCCC(=O)Nc1nc2ccc(OC(F)(F)F)cc2s1)NO ?
5.56 to 6.85

* * *

- System Tested: HDAC6 (Homo sapiens)
- Sequence (Q9UBN7 1-1215): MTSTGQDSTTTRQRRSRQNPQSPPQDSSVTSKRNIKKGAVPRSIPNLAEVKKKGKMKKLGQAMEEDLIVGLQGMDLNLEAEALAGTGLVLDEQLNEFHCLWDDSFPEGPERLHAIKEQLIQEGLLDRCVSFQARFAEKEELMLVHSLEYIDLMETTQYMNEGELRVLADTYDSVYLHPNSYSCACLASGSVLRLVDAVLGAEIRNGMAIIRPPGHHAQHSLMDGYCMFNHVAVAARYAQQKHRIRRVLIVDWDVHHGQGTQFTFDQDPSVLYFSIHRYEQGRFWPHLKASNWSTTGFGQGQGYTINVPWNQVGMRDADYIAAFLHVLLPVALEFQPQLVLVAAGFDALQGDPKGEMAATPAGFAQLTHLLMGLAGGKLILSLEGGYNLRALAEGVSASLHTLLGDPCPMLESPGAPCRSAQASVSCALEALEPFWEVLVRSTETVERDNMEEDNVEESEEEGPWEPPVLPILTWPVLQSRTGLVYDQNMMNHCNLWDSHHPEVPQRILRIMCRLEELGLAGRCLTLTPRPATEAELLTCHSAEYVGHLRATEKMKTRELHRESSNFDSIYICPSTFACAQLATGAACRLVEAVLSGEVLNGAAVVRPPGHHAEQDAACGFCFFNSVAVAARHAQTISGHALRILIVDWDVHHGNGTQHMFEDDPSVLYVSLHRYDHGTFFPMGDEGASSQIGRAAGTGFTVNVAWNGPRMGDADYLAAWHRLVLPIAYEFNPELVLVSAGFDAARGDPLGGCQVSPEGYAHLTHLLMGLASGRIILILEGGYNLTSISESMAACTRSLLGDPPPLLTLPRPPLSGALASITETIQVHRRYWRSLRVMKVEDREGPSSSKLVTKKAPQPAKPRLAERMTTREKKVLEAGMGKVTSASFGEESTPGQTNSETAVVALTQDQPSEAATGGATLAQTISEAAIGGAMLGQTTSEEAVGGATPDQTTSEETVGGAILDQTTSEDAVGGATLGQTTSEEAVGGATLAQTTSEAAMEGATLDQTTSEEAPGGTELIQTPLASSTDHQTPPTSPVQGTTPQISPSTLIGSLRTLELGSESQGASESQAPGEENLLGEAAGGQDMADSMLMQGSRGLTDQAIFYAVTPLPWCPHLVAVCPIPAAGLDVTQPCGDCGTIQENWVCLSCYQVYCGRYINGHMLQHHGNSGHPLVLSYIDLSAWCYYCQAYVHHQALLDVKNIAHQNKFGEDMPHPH
Property: pIC50
Note: pIC50 values are expressed as the negative base-10 logarithm of concentration in M.

Provide the documented pIC50 with HDAC6 (Homo sapiens) as the system for O=C(CCCCCCC(=O)Nc1nc2ccc(OC(F)(F)F)cc2s1)NO
7.92

* * *

- Measurement Description: In vitro metabolic stability assay in human liver microsomes
- Assay type: in vitro ADME
- Measurement Conditions: with NADPH, 37°C, LC-MS/MS, read-out: t1/2 Human liver microsomes
Property: half-life (min)
Supply the numeric figure in min, leaving out any unit text.

I am curious: what half-life value has been reported for O=C(CCCCCCC(=O)Nc1nc2ccc(OC(F)(F)F)cc2s1)NO [Compound 1] ?
56
